test system: CyclinE1/CDK2 (Homo sapiens, UniProt P24864)
Construct: purchased Eurofins, discovery 14-475
protocol text: Fluorescence Polarization (FP) competitive binding assay, Cyclin E1/Cdk2;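 also: readings taken after two-hour equilibration at room temperature in HEPES buffer with NaCl, DTT, NP-40 and BSA, IC50 fitted from eight-concentration serial dilution series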
reported conditions: 10 nM Cyclin E1/Cdk2, 2 nM FAM probe; average of 2-3 independent experiments; read-out: Cyclin E FP IC50
*1 amine or outer side, *2 acyl side, *3 side chain or, on linkers, in order; H or OH if unused. Where a SMILES comes first, the peptide text is derived from it. Bridges are numbered along the chain shown (N, C = ends). [ ]: non-standard residue; d: D form. The star is where a group is joined. X127 = CN([C@@H](Cc1cc(F)ccc1-c1cnn(S(=O)(=O)C2CC2)c1)C(=O)[*:2])[*:1]; X137 = CN([C@@H](Cc1cc(F)ccc1-c1cnn(S(C)(=O)=O)c1)C(=O)[*:2])[*:1]; X82 = CN([C@@H](Cc1cc(Cl)ccc1-c1cnn(S(C)(=O)=O)c1)C(=O)[*:2])[*:1]; X166 = CN([C@@H](Cc1cc(F)ccc1C1=CC2COCC(C1)N2)C(=O)[*:2])[*:1]; X79 = CC(C)n1cc(-c2ccc(Cl)cc2C[C@@H](C(=O)[*:2])N(C)[*:1])cn1; X162 = COc1cncc(-c2ccc(Cl)cc2C[C@@H](C(=O)[*:2])N(C)[*:1])c1; X26 = CN([C@@H](Cc1cc(F)ccc1-c1cnn(C2CC2)c1)C(=O)[*:2])[*:1]; NMehhhLys(Me) = CN([C@@H](CCCCCCCN(C)[*:3])C(=O)[*:2])[*:1]; X194 = CN([C@@H](Cc1cc(Cl)ccc1-c1ccnnc1)C(=O)[*:2])[*:1]; NMe(hhhLys) = CN([C@@H](CCCCCCCN[*:3])C(=O)[*:2])[*:1]; cBuCO(3,3-F2-1-CF3) = O=C(C1(C(F)(F)F)CC(F)(F)C1)*; Pro(trans-4-F) = O=C(O)[C@@H]1C[C@@H](F)CN1; Pivaloyl(3,3,3-F3) = CC(C)(C(=O)*)C(F)(F)F; Gly(cPr) = N[C@H](C(=O)O)C1CC1; X129 = N#CC1(C(=O)*)CCC1
// class assignment uses IC50 with these ranges: one = under 300 nM, two = from 300 nM up to 700 nM, three = 700 nM and over

compound: CC(C)C[C@@H]1NC(=O)[C@@H](N(C)C(=O)[C@@H](NC(=O)[C@@H]2C[C@@H](F)CN2C(=O)C(C)(C)C(F)(F)F)C2CC2)CCCCCCCN(C)C(=O)[C@H](Cc2cc(Cl)ccc2-c2cnn(S(C)(=O)=O)c2)N(C)C1=O [Example 301] ({Pivaloyl(3,3,3-F3)}-[Pro(trans-4-F)][Gly(cPr)][NMehhhLys(Me)]L[X82]; lactam 3-C)
test system: CyclinE1/CDK2 (Homo sapiens, UniProt P24864)
class label: two
--
compound: COc1cncc(-c2ccc(Cl)cc2C[C@H]2C(=O)N(C)CCCCCCC[C@H](N(C)C(=O)[C@@H](NC(=O)[C@@H]3C[C@@H](F)CN3C(=O)C3(C(F)(F)F)CC(F)(F)C3)C3CC3)C(=O)N[C@@H](CC(C)C)C(=O)N2C)c1 [Example 199] ({cBuCO(3,3-F2-1-CF3)}-[Pro(trans-4-F)][Gly(cPr)][NMehhhLys(Me)]L[X162]; lactam 3-C)
test system: CyclinE1/CDK2 (Homo sapiens, UniProt P24864)
class label: three
--
compound: CC(C)C[C@@H]1NC(=O)[C@@H](N(C)C(=O)[C@@H](NC(=O)[C@@H]2C[C@@H](F)CN2C(=O)C2(C(F)(F)F)CC(F)(F)C2)C2CC2)C/C=C\CCCCN(C)C(=O)[C@H](Cc2cc(F)ccc2-c2cnn(S(C)(=O)=O)c2)N(C)C1=O [Example 278]
test system: CyclinE1/CDK2 (Homo sapiens, UniProt P24864)
class label: one
--
compound: CC(C)C[C@@H]1NC(=O)[C@@H](N(C)C(=O)[C@@H](NC(=O)[C@@H]2C[C@@H](F)CN2C(=O)C2(C(F)(F)F)CC(F)(F)C2)C2CC2)CCCCCCCN(C)C(=O)[C@H](Cc2cc(F)ccc2-c2cnn(S(C)(=O)=O)c2)N(C)C1=O [Example 95] ({cBuCO(3,3-F2-1-CF3)}-[Pro(trans-4-F)][Gly(cPr)][NMehhhLys(Me)]L[X137]; lactam 3-C)
test system: CyclinE1/CDK2 (Homo sapiens, UniProt P24864)
class label: two
--
compound: CC(C)C[C@@H]1NC(=O)[C@@H](N(C)C(=O)[C@@H](NC(=O)[C@@H]2C[C@@H](F)CN2C(=O)C2(C(F)(F)F)CC(F)(F)C2)C2CC2)CCCCCCCNC(=O)[C@H](Cc2cc(F)ccc2-c2cnn(S(=O)(=O)C3CC3)c2)N(C)C1=O [Example 281] ({cBuCO(3,3-F2-1-CF3)}-[Pro(trans-4-F)][Gly(cPr)][NMe(hhhLys)]L[X127]; lactam 3-C)
test system: CyclinE1/CDK2 (Homo sapiens, UniProt P24864)
class label: two

Incoming: Consider CC(C)C[C@@H]1NC(=O)[C@@H](N(C)C(=O)[C@@H](NC(=O)[C@@H]2C[C@@H](F)CN2C(=O)C2(C#N)CCC2)C2CC2)CCCCCCCN(C)C(=O)[C@H](Cc2cc(F)ccc2-c2cnn(C3CC3)c2)N(C)C1=O [Example 122] (X129-[Pro(trans-4-F)][Gly(cPr)][NMehhhLys(Me)]L[X26]; lactam 3-C) . To which IC50 class does it belong?
Outgoing: one

Incoming: Queued: CC(C)C[C@@H]1NC(=O)[C@@H](N(C)C(=O)[C@@H](NC(=O)[C@@H]2C[C@@H](F)CN2C(=O)C2(C(F)(F)F)CC(F)(F)C2)C2CC2)CCCCCCCNC(=O)[C@H](Cc2cc(Cl)ccc2-c2ccnnc2)N(C)C1=O [Example 291] ({cBuCO(3,3-F2-1-CF3)}-[Pro(trans-4-F)][Gly(cPr)][NMe(hhhLys)]L[X194]; lactam 3-C)
Outgoing: three

Incoming: Item: CC(C)C[C@@H]1NC(=O)[C@@H](N(C)C(=O)[C@@H](NC(=O)[C@@H]2C[C@@H](F)CN2C(=O)C2(C(F)(F)F)CC(F)(F)C2)C2CC2)CCCCCCCN(C)C(=O)[C@H](Cc2cc(Cl)ccc2-c2cnn(C(C)C)c2)N(C)C1=O [Example 111] ({cBuCO(3,3-F2-1-CF3)}-[Pro(trans-4-F)][Gly(cPr)][NMehhhLys(Me)]L[X79]; lactam 3-C)
Outgoing: one

Incoming: # iterate: CC(C)C[C@@H]1NC(=O)[C@@H](N(C)C(=O)[C@@H](NC(=O)[C@@H]2C[C@@H](F)CN2C(=O)C2(C(F)(F)F)CC(F)(F)C2)C2CC2)CCCCCCCN(C)C(=O)[C@H](Cc2cc(F)ccc2C2=CC3COCC(C2)N3)N(C)C1=O (stereo partly drawn) [Example 166] ({cBuCO(3,3-F2-1-CF3)}-[Pro(trans-4-F)][Gly(cPr)][NMehhhLys(Me)]L[X166]; lactam 3-C)
Outgoing: three

Incoming: Continue with CC(C)C[C@@H]1NC(=O)[C@@H](N(C)C(=O)[C@@H](CC(=O)[C@@H]2C[C@@H](F)CN2C(=O)C2(C(F)(F)F)CC(F)(F)C2)C2CC2)CCCCCCN(C)C(=O)[C@H](Cc2cc(Cl)ccc2C2=CCOCC2)N(C)C1=O [Example 71]
Outgoing: three

Incoming: Note, next up: CC(C)C[C@@H]1NC(=O)[C@@H](NC(=O)[C@@H](NC(=O)[C@@H]2C[C@@H](F)CN2C(=O)C2(C(F)(F)F)CC(F)(F)C2)C2CC2)CCCCCCCNC(=O)[C@H](Cc2cc(Cl)ccc2Cl)N(C)C1=O [Example 8]
Outgoing: one

Incoming: Again, but for CC(C)C[C@@H]1NC(=O)[C@@H](N(C)C(=O)[C@@H](NC(=O)[C@@H]2C[C@@H](F)CN2C(=O)C2(C(F)(F)F)CC(F)(F)C2)C2CC2)CC=CCCCCN(C)C(=O)[C@H](Cc2cc(F)cnc2OC2CC2)N(C)C1=O [Example 126]
Outgoing: two
